# credit: patent US6514692B2

test: in vitro; conditions: human, ME180 cells
Where no end group is shown, it is not given here.
Please go through the items and note down their viability at 6 h, 0.32 µg/mL.
Unit % implied. Number only.

Lookup: For the sequence shown here, FKLRAKIKVRLRAKIKL [D4E1] , give the reported viability at 6 h, 0.32 µg/mL.
Found: 98.6

Lookup: Would you mind telling me what viability at 6 h, 0.32 µg/mL value was observed for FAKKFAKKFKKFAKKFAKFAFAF [D2A21] ?
Found: 97.6

---

test: toxicity (XTT) in transmission inhibition assay; conditions: human, ME180 cells
Where no end group is shown, it is not given here.
Property label: viability at 6 h, 10 µg/mL (%)
Give a bare numeral; the unit % is implied.

Lookup: Reported viability at 6 h, 10 µg/mL, sequence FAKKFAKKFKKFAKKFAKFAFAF [D2A21] : ____
Found: 95.9

Lookup: Given the entry FKLRAKIKVRLRAKIKL [D4E1] , report its measured viability at 6 h, 10 µg/mL.
Found: 97.7
